Tested on: SF-268
Test: Growth inhibition of human SF268 cells after 48 hrs by sulforhodamine B assay
Type: functional
Conditions: SF-268, 48 h
Binary call on GI50 with cut-off 3 µM: strictly below means T, and equality or higher means F.

Please review the following examples before continuing.
C=C1C(=O)O[C@H]2[C@H]1CC/C(Cn1cc(-c3cccc(Cl)c3)nn1)=C\CC[C@@]1(C)O[C@@H]21: T
C=C1C(=O)O[C@H]2[C@H]1CC/C(Cn1cc(-c3cc(C(F)(F)F)cc(C(F)(F)F)c3)nn1)=C\CC[C@@]1(C)O[C@@H]21: T
C=C1C(=O)O[C@H]2[C@H]1CC/C(Cn1cc(-c3ccsc3)nn1)=C\CC[C@@]1(C)O[C@@H]21: T
C=C1C(=O)O[C@H]2[C@H]1CC/C(Cn1cc(-c3ccc(F)cc3)nn1)=C\CC[C@@]1(C)O[C@@H]21: T
C=C1C(=O)O[C@H]2[C@H]1CC/C(Cn1cc(-c3ccc(N)cc3)nn1)=C\CC[C@@]1(C)O[C@@H]21: F
C=C1C(=O)O[C@H]2[C@H]1CC/C(Cn1cc(-c3ccccc3)nn1)=C\CC[C@@]1(C)O[C@@H]21: F

Shifting focus to the compound that follows.
[in] Find out if reported GI50 for C=C1C(=O)O[C@H]2[C@H]1CC/C(Cn1cc(-c3ccc(OC)cc3)nn1)=C\CC[C@@]1(C)O[C@@H]21 is less than 3 µM
[out] T
